# TEST_PROTOCOL: chemical genetic growth profiling, strain panel (AID 1159580);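 also: tested at 20 µM; growth read once vehicle control cultures reached saturation at 30 °C; 1 = growth at the plate median or of vehicle wells; lower values mean less growth of the strain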
# DETAILS: S. cerevisiae deletion strains, growth OD, locus YLR102C, strain apc9, stronger effect = lower value
Among all 5,500 compounds or so, about 2,000 (36%) were called active. Another 18% or so got no clear call; they are omitted. Some of the results follow.
MEASURE_NAME: normalized growth
# respond with the number and nothing more

Answered examples (3):
>>> observed_result("Cc1c(NC(C)C)c(=O)n(-c2ccccc2)n1C")
0.98
>>> observed_result("C[C@H]1C(=O)CCC2[C@]3(C)CC[C@@]4(C)C5CC(C)(C)CC[C@]5(C)CC[C@]4(C)C3CC[C@@]21C (some centres undefined)")
1.02
>>> observed_result("CN(C)CCC[C@@]1(c2ccc(F)cc2)OCc2cc(C#N)ccc21")
1.02

Let us examine a further case.
Request the reported normalized growth associated with CCCC(=O)Nc1ccc(OCC(O)CNC(C)C)c(C(C)=O)c1 (centres undefined)
1.01

---

# TEST_PROTOCOL: chemical genetic growth profiling, strain panel (AID 1159580);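 also: tested at 20 µM; growth read once vehicle control cultures reached saturation at 30 °C; 1 = growth at the plate median or of vehicle wells; lower values mean less growth of the strain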
# DETAILS: S. cerevisiae deletion strains, growth OD, locus YNL067W, strain RPL9B, stronger effect = lower value
Screen size: about 5,500 compounds; about 2,000 (36%) were called active. Another 18% or so got no clear call; they are omitted. The list shows a part of the results.
MEASURE_NAME: normalized growth
# respond with the number and nothing more

Request the reported normalized growth associated with C=C(C)C1Cc2c(ccc(C(=O)O)c2O)O1 (stereo not given)
1.01

---

# TEST_PROTOCOL: chemical genetic growth profiling, strain panel (AID 1159580);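 also: tested at 20 µM; growth read once vehicle control cultures reached saturation at 30 °C; 1 = growth at the plate median or of vehicle wells; lower values mean less growth of the strain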
# DETAILS: S. cerevisiae deletion strains, growth OD, locus YPL241C, strain CIN2, stronger effect = lower value
About 2,000 (36%) of roughly 5,500 compounds were called active. Inconclusive results (about 18%) are left out. The list shows a part of the results.
MEASURE_NAME: normalized growth
# respond with the number and nothing more

>>> observed_result("Cn1cnc2c1c(=O)[nH]c(=O)n2C")
1.01
>>> observed_result("CC(=O)Oc1c(C)c(C)c2c(c1C)CCC(C)(CCCC(C)CCCC(C)CCCC(C)C)O2 (configuration not stated)")
1.02
>>> observed_result("CCOC(=O)CC(=O)CSc1nnc(N)s1")
1.02

Request the reported normalized growth associated with C#CCn1c(=O)c2c(ncn2C)n(C)c1=O
1

Request the reported normalized growth associated with Cc1nc(C(F)(F)F)nc(Sc2n[nH]c(-c3cc(Cl)cc(Cl)c3)n2)c1C
1.07

Request the reported normalized growth associated with CN(C)c1cc2c(Nc3ccc4c(cnn4Cc4ccccc4)c3)ncnc2cn1
1

Request the reported normalized growth associated with Cn1c(Sc2ccc(C(F)(F)F)cc2[N+](=O)[O-])nnc1C(F)(F)F
1.11

Request the reported normalized growth associated with CCCCN(CC)c1c([N+](=O)[O-])cc(C(F)(F)F)cc1[N+](=O)[O-]
1.01

Request the reported normalized growth associated with CC(=O)O[C@@H]1C2CC[C@@H]3C1(C[C@@H](O)[C@@]1(O)[C@@H](C[C@H](O)C1(C)C)[C@]3(C)O)C[C@@]2(C)O (some centres not stated)
1.01

Request the reported normalized growth associated with COP(=O)(NC(C)=O)SC (configuration not stated)
1.01

---

# TEST_PROTOCOL: chemical genetic growth profiling, strain panel (AID 1159580);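 also: tested at 20 µM; growth read once vehicle control cultures reached saturation at 30 °C; 1 = growth at the plate median or of vehicle wells; lower values mean less growth of the strain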
# DETAILS: S. cerevisiae deletion strains, growth OD, locus YJR066W, strain TOR1, stronger effect = lower value
In all, about 5,500 compounds went through this assay and about 2,000 (36%) were called active. Not shown: some 18% with an inconclusive outcome. This is one part of the list.
MEASURE_NAME: normalized growth
# respond with the number and nothing more

Answered examples (4):
>>> observed_result("OC[C@H]1O[C@@H](Oc2ccc(O)cc2)[C@H](O)[C@@H](O)[C@@H]1O")
0.959
>>> observed_result("C/C(=C\\CO)CC[C@H](C)CCC[C@H](C)CCCC(C)C")
0.98
>>> observed_result("O=[N+]([O-])c1cc(C(F)(F)F)ccc1Sc1n[nH]c(-c2cc(Cl)cc(Cl)c2)n1")
0.16
>>> observed_result("Oc1cc2c(cc1O)C(c1ccccc1)CNCC2 (stereo not given)")
0.943

Let us examine a further case.
Request the reported normalized growth associated with COc1cc(O)ccc1C(C)=O
0.957
